Assay: self-splicing fitness, log relative to wild type (ln ratio); higher = more splicing; Tetrahymena group I intron in knt gene, E. coli kanamycin selection, DiMSum; sequences stand for … in CUCUCU…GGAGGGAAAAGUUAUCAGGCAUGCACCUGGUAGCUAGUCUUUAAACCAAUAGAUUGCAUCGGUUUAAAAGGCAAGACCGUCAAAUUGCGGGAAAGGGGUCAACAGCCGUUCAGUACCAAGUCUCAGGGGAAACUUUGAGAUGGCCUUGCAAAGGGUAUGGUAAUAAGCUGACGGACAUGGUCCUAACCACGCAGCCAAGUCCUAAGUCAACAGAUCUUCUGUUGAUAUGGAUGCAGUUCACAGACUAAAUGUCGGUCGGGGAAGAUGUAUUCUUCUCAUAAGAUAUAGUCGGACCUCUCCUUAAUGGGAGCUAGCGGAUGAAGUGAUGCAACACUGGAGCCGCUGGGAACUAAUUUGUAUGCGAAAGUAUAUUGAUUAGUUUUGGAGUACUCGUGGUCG;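 also: selection with 25 µg/mL kanamycin versus none on LB agar overnight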
Conditions: 37 °C
Assign class by self-splicing fitness (ln): not lower than -2 means yes (1); lower than -2 means no (0).

Take a look at these entries with their results.
CACCAGCAAUAUUACGCCUA ... yes (1)
GUUAAGCAAUAUUACGUCGU ... yes (1)
AACGAGCAAUAUUACGCAAU ... no (0)
AAGCAGCAAUAUUACGCGCG ... yes (1)

In the following, a different sequence is considered.
[Q] Please indicate if the recorded self-splicing fitness (ln) for GGUAAGCAAUAUUACGUUGC meets or exceeds -2.
[A] no (0)

###

Below, each of the sequences is paired with its reported self-splicing fitness (ln) value.
Test: self-splicing fitness, log relative to wild type (ln ratio); higher = more splicing; Tetrahymena group I intron in knt gene, E. coli kanamycin selection, DiMSum; sequences stand for … in CUCUCU…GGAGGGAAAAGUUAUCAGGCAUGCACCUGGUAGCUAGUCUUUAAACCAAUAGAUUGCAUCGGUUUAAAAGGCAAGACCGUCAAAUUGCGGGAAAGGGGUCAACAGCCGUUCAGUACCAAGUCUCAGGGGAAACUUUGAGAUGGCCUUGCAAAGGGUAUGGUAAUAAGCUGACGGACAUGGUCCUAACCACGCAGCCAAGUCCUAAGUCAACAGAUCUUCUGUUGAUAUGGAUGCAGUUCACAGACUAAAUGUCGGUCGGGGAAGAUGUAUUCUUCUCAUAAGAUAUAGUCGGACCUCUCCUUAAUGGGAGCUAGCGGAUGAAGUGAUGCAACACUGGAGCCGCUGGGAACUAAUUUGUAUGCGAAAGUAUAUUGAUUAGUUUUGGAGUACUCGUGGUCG
Conditions: 37 °C

Solved entries:
GUGCAGCAAUAUUACGGGCU ... -1.2
AGCAAGCAAUAUUACGAUCU ... 0.631

[Q] Please report the recorded self-splicing fitness (ln) for CUUCAGCAAUAUUACGCGUU .
[A] -2.7

[Q] Please report the recorded self-splicing fitness (ln) for UCGCAGCAAUAUUACGAUCU .
[A] -2.57

###

Test: self-splicing fitness, log relative to wild type (ln ratio); higher = more splicing; Tetrahymena group I intron in knt gene, E. coli kanamycin selection, DiMSum; sequences stand for … in CUCUCU…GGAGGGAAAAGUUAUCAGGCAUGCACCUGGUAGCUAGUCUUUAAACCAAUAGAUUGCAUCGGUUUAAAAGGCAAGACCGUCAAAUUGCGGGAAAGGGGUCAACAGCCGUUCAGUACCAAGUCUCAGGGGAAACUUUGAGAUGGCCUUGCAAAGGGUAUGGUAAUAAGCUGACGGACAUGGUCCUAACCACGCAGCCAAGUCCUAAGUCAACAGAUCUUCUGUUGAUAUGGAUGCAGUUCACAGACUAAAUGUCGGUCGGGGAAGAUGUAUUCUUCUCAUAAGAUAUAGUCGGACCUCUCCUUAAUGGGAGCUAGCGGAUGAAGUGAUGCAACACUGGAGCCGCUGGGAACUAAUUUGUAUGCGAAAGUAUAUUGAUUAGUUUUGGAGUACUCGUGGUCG
Details: 37 °C
Assign class by self-splicing fitness (ln): not lower than -2 means yes (1); lower than -2 means no (0).

Take a look at these entries with their results.
AAGCAGCAAUAUUACGUUUU ... no (0)
UAUCAGCAAUAUUACGUGAG ... yes (1)
UACAAGCAAUAUUACGCCCG ... yes (1)

[Q] Please indicate if the recorded self-splicing fitness (ln) for GACAAGCAAUAUUACGAUAG meets or exceeds -2.
[A] yes (1)

[Q] Please indicate if the recorded self-splicing fitness (ln) for UGGUAGCAAUAUUACGUUUU meets or exceeds -2.
[A] no (0)

[Q] Please indicate if the recorded self-splicing fitness (ln) for ACGGAGCAAUAUUACGGACU meets or exceeds -2.
[A] yes (1)

[Q] Please indicate if the recorded self-splicing fitness (ln) for UCAUAGCAAUAUUACGUAGU meets or exceeds -2.
[A] no (0)

[Q] Please indicate if the recorded self-splicing fitness (ln) for GUCCAGCAAUAUUACGGAAC meets or exceeds -2.
[A] yes (1)

###

Below, each of the sequences is paired with its reported self-splicing fitness (ln) value.
Assay: self-splicing fitness, log relative to wild type (ln ratio); higher = more splicing; Tetrahymena group I intron in knt gene, E. coli kanamycin selection, DiMSum; sequences stand for … in CUCUCU…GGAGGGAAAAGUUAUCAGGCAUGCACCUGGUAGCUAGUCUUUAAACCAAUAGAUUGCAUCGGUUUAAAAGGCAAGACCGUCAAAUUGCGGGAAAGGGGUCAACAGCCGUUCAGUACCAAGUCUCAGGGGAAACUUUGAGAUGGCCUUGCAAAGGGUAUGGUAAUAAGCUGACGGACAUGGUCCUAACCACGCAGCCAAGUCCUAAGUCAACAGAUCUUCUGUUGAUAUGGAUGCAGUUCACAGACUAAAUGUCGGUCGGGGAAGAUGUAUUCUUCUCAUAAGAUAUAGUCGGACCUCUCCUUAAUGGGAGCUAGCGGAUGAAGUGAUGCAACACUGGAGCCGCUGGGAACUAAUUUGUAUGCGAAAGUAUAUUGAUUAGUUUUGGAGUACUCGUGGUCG
Conditions: 30 °C
Reply briefly: the number, and no unit.

Solved entries:
UGAUAGCAAUAUUACGUCGU ... -2.06
GCACAGCAAUAUUACGGUUC ... -0.415
ACUAAGCAAUAUUACGAGAG ... -3.17
CACCAGCAAUAUUACGCACG ... -0.655
CGCUAGCAAUAUUACGGCGA ... -2.76
GAGCAGCAAUAUUACGUAGU ... -3.35
GCCCAGCAAUAUUACGGCCG ... -1.11
AUCUAGCAAUAUUACGCGCC ... -0.659

Next item in the queue.
[Q] Please report the recorded self-splicing fitness (ln) for GUGCAGCAAUAUUACGCGAA .
[A] -1.62

###

Below, each of the sequences is paired with its reported self-splicing fitness (ln) value.
Experiment: self-splicing fitness, log relative to wild type (ln ratio); higher = more splicing; Tetrahymena group I intron in knt gene, E. coli kanamycin selection, DiMSum; sequences stand for … in CUCUCU…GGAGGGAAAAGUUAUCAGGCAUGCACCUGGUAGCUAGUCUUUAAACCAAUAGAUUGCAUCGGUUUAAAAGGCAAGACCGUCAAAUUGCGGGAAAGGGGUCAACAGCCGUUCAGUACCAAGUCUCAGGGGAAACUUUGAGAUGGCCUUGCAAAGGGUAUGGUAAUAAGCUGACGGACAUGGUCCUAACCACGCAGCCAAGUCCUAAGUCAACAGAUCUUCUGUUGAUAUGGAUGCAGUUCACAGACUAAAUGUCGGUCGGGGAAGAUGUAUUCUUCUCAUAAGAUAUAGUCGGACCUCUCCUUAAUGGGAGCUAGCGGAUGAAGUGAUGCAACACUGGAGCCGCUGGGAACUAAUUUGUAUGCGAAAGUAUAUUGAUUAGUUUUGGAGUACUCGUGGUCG
Conditions: 37 °C
Reply briefly: the number, and no unit.

Solved entries:
CGACAGCAAUAUUACGCUUU ... -2.05
UGCGAGCAAUAUUACGCAAA ... -2.04
UCCGAGCAAUAUUACGUUUA ... -1.71

[Q] Please report the recorded self-splicing fitness (ln) for GACAAGCAAUAUUACGUUGU .
[A] -2.81

[Q] Please report the recorded self-splicing fitness (ln) for CAAAAGCAAUAUUACGUUCG .
[A] 0.246

###

Assay: self-splicing fitness, log relative to wild type (ln ratio); higher = more splicing; Tetrahymena group I intron in knt gene, E. coli kanamycin selection, DiMSum; sequences stand for … in CUCUCU…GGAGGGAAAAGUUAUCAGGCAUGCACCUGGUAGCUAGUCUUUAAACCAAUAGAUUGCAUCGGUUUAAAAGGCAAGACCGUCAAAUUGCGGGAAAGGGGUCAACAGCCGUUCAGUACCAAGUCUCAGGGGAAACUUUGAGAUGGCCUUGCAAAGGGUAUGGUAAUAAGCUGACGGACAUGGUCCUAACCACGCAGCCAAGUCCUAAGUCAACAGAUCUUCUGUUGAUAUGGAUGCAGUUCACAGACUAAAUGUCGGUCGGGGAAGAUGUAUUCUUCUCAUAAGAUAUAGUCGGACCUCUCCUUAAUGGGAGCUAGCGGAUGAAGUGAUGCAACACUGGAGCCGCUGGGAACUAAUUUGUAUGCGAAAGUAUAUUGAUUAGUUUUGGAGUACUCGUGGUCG
Settings: 37 °C
Returns the class for an entry based on its self-splicing fitness (ln). Class ranges: lower band (below -2), central band (-2 to below -1), upper band (-1 or more)

Take a look at these entries with their results.
AGAGAGCAAUAUUACGAUCC ... central band
GCGAAGCAAUAUUACGGUCC ... lower band
ACUGAGCAAUAUUACGUGCU ... lower band
UGUUAGCAAUAUUACGUUGC ... central band
GCACAGCAAUAUUACGAGGA ... central band

[Q] Assign a category based on measured self-splicing fitness (ln) for UAACAGCAAUAUUACGCAAG and give only the class name.
[A] lower band

[Q] Assign a category based on measured self-splicing fitness (ln) for GAGGAGCAAUAUUACGGUUC and give only the class name.
[A] lower band

[Q] Assign a category based on measured self-splicing fitness (ln) for UUGUAGCAAUAUUACGAUGC and give only the class name.
[A] central band

Numbers sourced from the supplement of paper PMC7877785.
